These data points were gathered from patent US20210238225A1.

molecular target: Pin1 (GST-Pin1) (Homo sapiens); assay: Fluorescence polarization (FP) assay, binding to Pin1; settings: competition with fluorescein-labeled peptide probe; 12 hours pre-incubation at 4° C.; Kenakin Ki equation; read-out: Ki, μM (FP Assay)
Sequence (Q13526 whole entry): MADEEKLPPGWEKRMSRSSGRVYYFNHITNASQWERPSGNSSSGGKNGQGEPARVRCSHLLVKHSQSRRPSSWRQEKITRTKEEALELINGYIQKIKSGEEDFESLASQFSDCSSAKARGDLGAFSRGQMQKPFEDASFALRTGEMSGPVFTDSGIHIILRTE
Non-standard residues stand in square brackets, D forms with d. Residues, ends and D or L forms follow the SMILES beside them. *: point of attachment. Phe(4-CONH2) = NC(=O)c1ccc(C[C@H](N)C(=O)O)cc1; 2Nal = N[C@@H](Cc1ccc2ccccc2c1)C(=O)O; Met(O2) = CS(=O)(=O)CC[C@H](N)C(=O)O; Bta = N[C@@H](Cc1csc2ccccc12)C(=O)O; NH(4-Me-benzyl) = Cc1ccc(CN*)cc1; NMeF = CN[C@@H](Cc1ccccc1)C(=O)O; NMeE = CN[C@@H](CCC(=O)O)C(=O)O; pS = N[C@@H](COP(=O)(O)O)C(=O)O; β3hE = N[C@@H](CCC(=O)O)CC(=O)O; Cit = NC(=O)NCCC[C@H](N)C(=O)O; aThr = C[C@H](O)[C@H](N)C(=O)O; Pip = O=C(O)[C@@H]1CCCCN1; Piperidide = C1CCN(*)CC1; Acryloyl = C=CC(=O)*; X3 = C=CS(=O)(=O)*; ClAc = O=C(CCl)*
Doc: threshold 0.1 µM (exclusive). Items with Ki beneath it return label 1; others return label 0.

Data request: Input CN(C(=O)CCl)[C@@H](CCC(=O)O)C(=O)N1CCCC[C@H]1C(=O)N[C@@H](Cc1c[nH]c2ccccc12)C(=O)N[C@@H](Cc1ccc(O)cc1)C(N)=O [Compound 2-31] (ClAc-[NMeE][Pip]WY-NH2) ; condition: Ki strictly below 0.1 µM. Does it hold?
Data returned: label 1

Data request: Input C[C@H](O)[C@H](NC(=O)CCl)C(=O)N1CCCC[C@H]1C(=O)N[C@@H](Cc1c[nH]c2ccccc12)C(=O)N[C@@H](Cc1ccc(O)cc1)C(N)=O [Compound 2-26] (ClAc-[aThr][Pip]WY-NH2) ; condition: Ki strictly below 0.1 µM. Does it hold?
Data returned: label 0

Data request: Input NC(=O)NCCC[C@H](NC(=O)[C@H](Cc1ccc2ccccc2c1)NC(=O)[C@@H]1CCCCN1C(=O)[C@H](CCC(=O)O)N1C(=O)C=CC1=O)C(N)=O ; condition: Ki strictly below 0.1 µM. Does it hold?
Data returned: label 0

Data request: Input COC(=O)CC[C@H](NC(=O)CCl)C(=O)N1CCCC[C@H]1C(=O)N[C@@H](Cc1c[nH]c2ccccc12)C(=O)N[C@@H](CCCNC(N)=O)C(N)=O [Compound 2] (ClAc-E(OMe)[Pip]W[Cit]-NH2) ; condition: Ki strictly below 0.1 µM. Does it hold?
Data returned: label 1

Data request: Input CN(C(=O)CCl)[C@@H](Cc1ccccc1)C(=O)N1CCCC[C@H]1C(=O)N[C@@H](Cc1c[nH]c2ccccc12)C(=O)N1CCCCC1 [Compound 11-45] (ClAc-[NMeF]-[Pip]-Trp-Piperidide) ; condition: Ki strictly below 0.1 µM. Does it hold?
Data returned: label 0

Data request: Input CC(=O)N[C@@H](CCC(=O)O)C(=O)N1CCCC[C@H]1C(=O)N[C@@H](Cc1c[nH]c2ccccc12)C(=O)N[C@@H](CCCNC(N)=O)C(N)=O [Compound 2-33] (Ac-E[Pip]W[Cit]-NH2) ; condition: Ki strictly below 0.1 µM. Does it hold?
Data returned: label 0

Data request: Input NC(=O)NCCC[C@H](NC(=O)[C@H](Cc1ccc2ccccc2c1)NC(=O)[C@@H]1CCCCN1C(=O)C[C@H](CCC(=O)O)NC(=O)CCl)C(N)=O [Compound 2-12] (ClAc-[β3hE][Pip][2Nal][Cit]-NH2) ; condition: Ki strictly below 0.1 µM. Does it hold?
Data returned: label 0

Data request: Input Cc1ccc(CNC(=O)[C@H](CCCNC(N)=O)NC(=O)[C@H](Cc2c[nH]c3ccccc23)NC(=O)[C@@H]2CCCCN2C(=O)[C@H](CCC(=O)O)NC(=O)CCl)cc1 [Compound 11-6] (ClAc-E[Pip]W[Cit]-{NH(4-Me-benzyl)}) ; condition: Ki strictly below 0.1 µM. Does it hold?
Data returned: label 1

Data request: Input COC(=O)CC[C@H](NC(=O)CCl)C(=O)N1CCCC[C@H]1C(=O)N[C@@H](Cc1c[nH]c2ccccc12)C(=O)N[C@@H](Cc1ccc(O)cc1)C(=O)NCc1ccc(C)cc1 [Compound 11-1] ; condition: Ki strictly below 0.1 µM. Does it hold?
Data returned: label 0

Data request: Input Cc1ccc(CNC(=O)[C@H](CCCNC(N)=O)NC(=O)[C@H](Cc2c[nH]c3ccccc23)NC(=O)[C@@H]2CCCCN2C(=O)[C@H](CCS(C)(=O)=O)NC(=O)CCl)cc1 [Compound 11-11] (ClAc-[Met(O2)][Pip]W[Cit]-{NH(4-Me-benzyl)}) ; condition: Ki strictly below 0.1 µM. Does it hold?
Data returned: label 0

Data request: Input NC(=O)[C@H](CO)NC(=O)[C@H](Cc1ccc2ccccc2c1)NC(=O)[C@@H]1CCCCN1C(=O)[C@H](CCC(=O)O)NC(=O)CCl [Compound 2b-12] (ClAc-E[Pip][2Nal]S-NH2) ; condition: Ki strictly below 0.1 µM. Does it hold?
Data returned: label 0

Data request: Input NC(=O)NCCC[C@H](NC(=O)[C@H](Cc1c[nH]c2ccccc12)NC(=O)[C@@H]1CCCCN1C(=O)[C@H](COP(=O)(O)O)NC(=O)CCl)C(N)=O [Compound 2-21] (ClAc-[pS][Pip]W[Cit]-NH2) ; condition: Ki strictly below 0.1 µM. Does it hold?
Data returned: label 1

Data request: Input C=CC(=O)N[C@@H](CC(=O)O)C(=O)N1CCCC[C@H]1C(=O)N[C@@H](Cc1ccc2ccccc2c1)C(=O)N[C@@H](CCC(N)=O)C(N)=O [Compound 2-35] (Acryloyl-D[Pip][2Nal]Q-NH2) ; condition: Ki strictly below 0.1 µM. Does it hold?
Data returned: label 0

Data request: Input C=CS(=O)(=O)N[C@@H](CCC(=O)O)C(=O)N1CCCC[C@H]1C(=O)N[C@@H](Cc1ccc2ccccc2c1)C(=O)N[C@@H](CCCNC(N)=O)C(N)=O [Compound 4] (X3-E[Pip][2Nal][Cit]-NH2) ; condition: Ki strictly below 0.1 µM. Does it hold?
Data returned: label 0

Data request: Input NC(=O)c1ccc(C[C@H](NC(=O)[C@H](Cc2ccc3ccccc3c2)NC(=O)[C@@H]2CCCCN2C(=O)[C@H](CCC(=O)O)NC(=O)CCl)C(N)=O)cc1 [Compound 2-9] (ClAc-E[Pip][2Nal][Phe(4-CONH2)]-NH2) ; condition: Ki strictly below 0.1 µM. Does it hold?
Data returned: label 0

Data request: Input CN(C(=O)CCl)[C@@H](Cc1ccccc1)C(=O)N1CCCC[C@H]1C(=O)N[C@@H](Cc1csc2ccccc12)C(=O)N[C@@H](CCCNC(N)=O)C(=O)N1CCCCC1 [Compound 11-42] (ClAc-[NMeF][Pip][Bta][Cit]-Piperidide) ; condition: Ki strictly below 0.1 µM. Does it hold?
Data returned: label 0

Data request: Input NC(=O)C[C@H](NC(=O)[C@H](Cc1ccc2ccccc2c1)NC(=O)[C@@H]1CCCCN1C(=O)[C@H](CCC(=O)O)NC(=O)CCl)C(N)=O [Compound 2-8] (ClAc-E[Pip][2Nal]N-NH2) ; condition: Ki strictly below 0.1 µM. Does it hold?
Data returned: label 0

Data request: Input Cc1ccc(CNC(=O)[C@H](CCCNC(N)=O)NC(=O)[C@H](Cc2c[nH]c3ccccc23)NC(=O)[C@@H]2CCCCN2C(=O)[C@H](Cc2ccccc2)NCC#N)cc1 ; condition: Ki strictly below 0.1 µM. Does it hold?
Data returned: label 0
